- assay-details: log P determination by HPLC on reversed-phase columns (EEC Directive 79/831 Annex V.A8)
- Format: physicochemical
- condition: pH 2.7
endpoint-label: chromatographic logP
Write no unit; give the number alone.

Please review the following examples before continuing.
structure-as-smiles	chromatographic logP
CNC(=O)c1cc(Cl)cc(C)c1NC(=O)c1cc(Cn2ncc(C(C)(C)C)n2)nn1-c1ncccc1Cl	3.2
CNC(=O)c1cc(Cl)cc(C)c1NC(=O)c1cc(Cn2ncc(-c3ccccc3Cl)n2)nn1-c1ncccc1Cl	3.43
Cc1cc(Cl)cc(C(=O)NC(C)C)c1NC(=O)c1cc(Cn2nccn2)nn1-c1ncccc1Cl	2.5
CNC(=O)c1cc(Cl)cc(C)c1NC(=O)c1cc(Cn2cc(C(C)(C)C)nn2)nn1-c1ncccc1Cl	2.53
Cc1cc(C#N)cc(C(=O)NC(C)(C)C)c1NC(=O)c1cc(Cn2cc(-c3ccc(Cl)cc3)nn2)nn1-c1ncccc1Cl	3.54

State, in one line, measured chromatographic logP of "CNC(=O)c1cc(C#N)cc(C)c1NC(=O)c1cc(Cn2cc(-c3ccc(Cl)cc3Cl)nn2)nn1-c1ncccc1Cl" 3.2

State, in one line, measured chromatographic logP of "CC(C)(C)NC(=O)c1cc(Cl)cc(Cl)c1NC(=O)c1cc(Cn2ncc(C(F)(F)F)n2)nn1-c1ncccc1Cl" 3.8

State, in one line, measured chromatographic logP of "CSC[C@H](C)NC(=O)c1cc(Cl)cc(C)c1NC(=O)c1cc(Cn2ncc(C(F)(F)C(F)(F)F)n2)nn1-c1ncccc1Cl" 4.1

###

- assay-details: log P determination by HPLC on reversed-phase columns (EEC Directive 79/831 Annex V.A8)
- Assay type: physicochemical
- condition: pH 2.7; HPLC on reversed-phase columns (C 18), EEC Directive 79/831 Annex V.A8; read-out: logP
endpoint-label: chromatographic logP
Write no unit; give the number alone.

Please review the following examples before continuing.
molecule	chromatographic logP
CCNC(=O)c1cc(Cl)cc(C)c1NC(=O)c1cc(Cn2cc(C(F)(F)C(F)(F)C(F)(F)F)nn2)nn1-c1ncccc1Cl	3.62
Cc1cc(I)cc(C(=O)NC2CC2)c1NC(=O)c1cc(Cn2ncc(C(F)(F)C(F)(F)C(F)(F)F)n2)nn1-c1ncccc1Cl	4.23
Cc1cc(I)cc(C(=O)NC(C)C2CC2)c1NC(=O)c1cc(Cn2cc(C(F)(F)C(F)(F)C(F)(F)F)nn2)nn1-c1ncccc1Cl (stereo not drawn)	4.36

State, in one line, measured chromatographic logP of "CSC[C@H](C)NC(=O)c1cc(Cl)cc(C)c1NC(=O)c1cc(Cn2ncc(C(F)(F)C(F)(F)C(F)(F)F)n2)nn1-c1ncccc1Cl" 4.41

State, in one line, measured chromatographic logP of "CCNC(=O)c1cc(C#N)cc(C)c1NC(=O)c1cc(Cn2cc(C(F)(F)C(F)(F)C(F)(F)F)nn2)nn1-c1ncccc1Cl" 3.24

State, in one line, measured chromatographic logP of "Cc1cc(Cl)cc(C(=O)NC2CC2)c1NC(=O)c1cc(Cn2ncc(C(F)(F)C(F)(F)C(F)(F)F)n2)nn1-c1ncccc1Cl" 3.99

###

- assay-details: log P determination by HPLC on reversed-phase columns (EEC Directive 79/831 Annex V.A8)
- Assay type: physicochemical
- condition: pH 2.7
Under this convention, rule met denotes chromatographic logP strictly below 3 and rule not met denotes chromatographic logP at or above 3.

Some solved entries appear below for comparison.
structure-as-smiles	assigned-label
CSC[C@H](C)NC(=O)c1cc(I)cc(C)c1NC(=O)c1cc(Cn2nc(C(F)(F)F)c(C(F)(F)F)n2)nn1-c1ncccc1Cl	rule not met
Cc1cc(Cl)cc(C(=O)NC(C)C)c1NC(=O)c1cc(Cn2ncc(C(F)(F)C(F)(F)F)n2)nn1-c1ncccc1Cl	rule not met
CNC(=O)c1cc(Cl)cc(C)c1NC(=O)c1cc(Cn2nccn2)nn1-c1ncccc1Cl	rule met
CNC(=O)c1cc(C#N)cc(C)c1NC(=O)c1cc(Cn2nnc3ccc(F)cc32)nn1-c1ncccc1Cl	rule met
Cc1cc(I)cc(C(=O)NC(C)C)c1NC(=O)c1cc(Cn2cc(C(F)(F)F)nn2)nn1-c1ncccc1Cl	rule not met

Strictly below 3 in chromatographic logP? "Cc1cc(Br)cc(C(=O)NC(C)(C)C)c1NC(=O)c1cc(Cn2ncc(C(F)(F)F)n2)nn1-c1ncccc1Cl" rule not met

Strictly below 3 in chromatographic logP? "Cc1cc(Cl)cc(C(=O)NCC#N)c1NC(=O)c1cc(Cn2cc(C(F)(F)F)nn2)nn1-c1ncccc1Cl" rule met

Strictly below 3 in chromatographic logP? "NC(=O)c1cc(Cl)cc(Cl)c1NC(=O)c1cc(Cn2ncc(C(F)(F)F)n2)nn1-c1ncccc1Cl" rule met

Strictly below 3 in chromatographic logP? "Cc1cc(C#N)cc(C(N)=O)c1NC(=O)c1cc(Cn2cc(C(F)(C(F)(F)F)C(F)(F)F)nn2)nn1-c1ncccc1Cl" rule met

Strictly below 3 in chromatographic logP? "CSC[C@H](C)NC(=O)c1cc(I)cc(C)c1NC(=O)c1cc(Cn2ncc(C(F)(F)C(F)(F)F)n2)nn1-c1ncccc1Cl" rule not met

Strictly below 3 in chromatographic logP? "O=C(NC1CC1)c1cc(Cl)cc(Cl)c1NC(=O)c1cc(Cn2cc(C(F)(F)F)nn2)nn1-c1ncccc1Cl" rule met

Strictly below 3 in chromatographic logP? "Cc1cc(C#N)cc(C(=O)NC(C)(C)C)c1NC(=O)c1cc(Cn2nnc3c(Cl)c(Cl)c(Cl)c(Cl)c32)nn1-c1ncccc1Cl" rule not met

The values you see were collected from patent US8536202B2.
